- testTarget: human ether-à-go-go-related gene (hERG) potassium channel (human, UniProt Q12809);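 further: peak tail current of the secondary pulse compared with the same well before compound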
- Sequence (Q12809 whole entry, looked up): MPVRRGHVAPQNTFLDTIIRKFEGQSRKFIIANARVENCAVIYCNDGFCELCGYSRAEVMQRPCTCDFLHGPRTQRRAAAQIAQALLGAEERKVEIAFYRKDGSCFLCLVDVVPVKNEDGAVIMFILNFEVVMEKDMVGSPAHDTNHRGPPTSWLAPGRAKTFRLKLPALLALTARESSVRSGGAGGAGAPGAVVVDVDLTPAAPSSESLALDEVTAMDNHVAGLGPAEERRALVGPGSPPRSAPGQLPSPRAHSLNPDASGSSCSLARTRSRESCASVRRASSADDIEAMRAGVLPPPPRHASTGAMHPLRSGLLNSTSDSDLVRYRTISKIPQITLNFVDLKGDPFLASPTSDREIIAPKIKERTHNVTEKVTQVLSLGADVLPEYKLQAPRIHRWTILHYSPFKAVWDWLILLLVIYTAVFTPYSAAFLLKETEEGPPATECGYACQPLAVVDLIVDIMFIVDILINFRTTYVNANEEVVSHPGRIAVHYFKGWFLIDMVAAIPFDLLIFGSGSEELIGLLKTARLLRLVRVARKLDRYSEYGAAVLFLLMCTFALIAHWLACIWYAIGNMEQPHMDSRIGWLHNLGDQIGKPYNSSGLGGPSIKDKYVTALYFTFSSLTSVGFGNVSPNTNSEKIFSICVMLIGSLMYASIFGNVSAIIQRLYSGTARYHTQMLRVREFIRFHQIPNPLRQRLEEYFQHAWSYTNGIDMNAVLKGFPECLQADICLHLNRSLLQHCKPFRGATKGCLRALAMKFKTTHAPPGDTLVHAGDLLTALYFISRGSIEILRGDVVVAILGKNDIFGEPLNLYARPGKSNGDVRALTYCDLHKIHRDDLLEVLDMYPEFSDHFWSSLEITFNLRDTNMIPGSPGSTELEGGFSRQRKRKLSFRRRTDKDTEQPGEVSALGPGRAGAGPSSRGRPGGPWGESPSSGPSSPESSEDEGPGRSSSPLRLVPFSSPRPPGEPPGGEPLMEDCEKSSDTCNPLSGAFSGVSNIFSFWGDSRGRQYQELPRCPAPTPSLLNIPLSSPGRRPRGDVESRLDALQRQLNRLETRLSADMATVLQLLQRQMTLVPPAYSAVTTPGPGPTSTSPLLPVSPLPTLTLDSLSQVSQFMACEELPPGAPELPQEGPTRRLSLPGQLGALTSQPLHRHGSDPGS
- protocol: primary screen, population patch clamp on CHO cells stably expressing hERG; higher = less effect of the substance
In all, about 310,000 compounds went through this assay and about 14,000 (4.5%) showed an effect of 50% or more. The effect is printed as a negative number. The full list was thinned out, with strong results kept by preference.
Decide using hERG current change (%, negative = inhibition) at 10uM: a value greater than or equal to -40% is 1, a smaller one is -1.

Examples with answers:
CN1C(=S)SC(/[N+]([O-])=C\c2ccccc2)C1(C)C (stereo not shown)	1
COc1ccc(Cn2c(-c3ccc(Br)cc3)c[n+]3ccccc23)cc1.[Br-]	1
COc1ccc(-c2c[n+]3c4n2CCCCC4=C(c2ccccc2)C3)cc1.[Br-]	-1
CCN(CC)CCCN=Cc1c(O)n(-c2ccc(C)cc2)c(=O)c2ccccc12	1
CCN(CC)CCCN=Cc1c(O)n(-c2c(C)cccc2C)c(=O)c2ccccc12	1

Ask | Confirm if hERG current change (%, negative = inhibition) at 10uM reported for the compound `CN(C)CCN=Cc1c(O)n(Cc2ccccc2)c(=O)c2ccccc12` is -40% or above.
Reply | -1

Ask | Confirm if hERG current change (%, negative = inhibition) at 10uM reported for the compound `COc1ccc(-c2c[n+]3c4n2CCCCC4=C(c2ccc(Br)cc2)C3)cc1.[Br-]` is -40% or above.
Reply | -1

Ask | Confirm if hERG current change (%, negative = inhibition) at 10uM reported for the compound `O=c1c2ccccc2c(C=NCCCN2CCOCC2)c(O)n1Cc1ccccc1` is -40% or above.
Reply | -1

Ask | Confirm if hERG current change (%, negative = inhibition) at 10uM reported for the compound `C[n+]1cc(-c2ccccc2)n2c1CCCCC2.[I-]` is -40% or above.
Reply | 1

Ask | Confirm if hERG current change (%, negative = inhibition) at 10uM reported for the compound `Clc1ccc(-c2cnc3n2CCCCC3)cc1` is -40% or above.
Reply | -1

Ask | Confirm if hERG current change (%, negative = inhibition) at 10uM reported for the compound COc1cc(C(=O)OCC(=O)N2CCCCC2C)ccc1OCc1c(C)noc1C (stereo not shown) is -40% or above.
Reply | 1

Ask | Confirm if hERG current change (%, negative = inhibition) at 10uM reported for the compound `COC(=O)c1nn(-c2c(C)n(C)n(-c3ccccc3)c2=O)cc1O` is -40% or above.
Reply | 1

Ask | Confirm if hERG current change (%, negative = inhibition) at 10uM reported for the compound `Clc1ccc(C2=C3CCCCn4c(-c5ccccc5)c[n+](c43)C2)cc1.[Br-]` is -40% or above.
Reply | -1

Ask | Confirm if hERG current change (%, negative = inhibition) at 10uM reported for the compound Cc1ccc(N2C(=O)N(CC(=O)NC(c3ccccc3)c3ccccc3)C(=O)C2C)cc1 (stereo not shown) is -40% or above.
Reply | 1

Ask | Confirm if hERG current change (%, negative = inhibition) at 10uM reported for the compound COc1ccc(C(O)P(=O)(OCC(C)C)c2ccc(N(C)C)cc2)c(OC)c1 (stereo not shown) is -40% or above.
Reply | 1

Ask | Confirm if hERG current change (%, negative = inhibition) at 10uM reported for the compound `COc1ccc(-c2c[n+](CC(=O)N3c4ccccc4Sc4ccccc43)c3n2CCC3)cc1.[Cl-]` is -40% or above.
Reply | 1

Ask | Confirm if hERG current change (%, negative = inhibition) at 10uM reported for the compound `CN(C)CCCN=Cc1c(O)n(Cc2ccc3c(c2)OCO3)c(=O)c2ccccc12` is -40% or above.
Reply | -1

Ask | Confirm if hERG current change (%, negative = inhibition) at 10uM reported for the compound `CCN(CC)CCCN=Cc1c(O)n(-c2cccc(C)c2)c(=O)c2ccccc12` is -40% or above.
Reply | -1

Ask | Confirm if hERG current change (%, negative = inhibition) at 10uM reported for the compound `CN(C)CCN=Cc1c(O)n(Cc2ccc3c(c2)OCO3)c(=O)c2ccccc12` is -40% or above.
Reply | 1
